# TARGET_OF_ASSAY: T1, Cas6-1 (Saccharolobus/Sulfolobus solfataricus P2, UniProt Q97Y96 1-287)
# T1 sequence: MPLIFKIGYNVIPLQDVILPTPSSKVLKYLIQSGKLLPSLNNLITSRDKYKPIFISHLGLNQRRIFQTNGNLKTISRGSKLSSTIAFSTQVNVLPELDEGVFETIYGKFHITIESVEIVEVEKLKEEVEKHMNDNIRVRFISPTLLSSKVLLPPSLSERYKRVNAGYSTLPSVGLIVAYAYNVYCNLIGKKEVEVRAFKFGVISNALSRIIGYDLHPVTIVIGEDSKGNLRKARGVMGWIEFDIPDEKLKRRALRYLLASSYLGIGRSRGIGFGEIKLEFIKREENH
# TEST_DESCRIPTION: fluorescence quenching; 25 C; apparent Kd, fit with variable Hill coefficient; EMSA: NR buffer (composition not in material) with 2 uM BSA, 0.5 nM RNA (legend: 1 nM), 15 min at 20 C, 6% native PAGE in 1x TBE; fluorescence quenching at 25 C, buffer not in material
# SETUP_CONDITIONS: protein: recombinant; chain copies: 2; label: 5'-FAM
MEASURED_ATTRIBUTE: Kd

>>> test_result("UGAUAAUCUCUUAUAGA (ssRNA, 3'-phosphate) [FAM-CDproduct RNA]")
"~14 nM"
